Target: human P2X3 (Homo sapiens)
Sequence (P56373 whole entry): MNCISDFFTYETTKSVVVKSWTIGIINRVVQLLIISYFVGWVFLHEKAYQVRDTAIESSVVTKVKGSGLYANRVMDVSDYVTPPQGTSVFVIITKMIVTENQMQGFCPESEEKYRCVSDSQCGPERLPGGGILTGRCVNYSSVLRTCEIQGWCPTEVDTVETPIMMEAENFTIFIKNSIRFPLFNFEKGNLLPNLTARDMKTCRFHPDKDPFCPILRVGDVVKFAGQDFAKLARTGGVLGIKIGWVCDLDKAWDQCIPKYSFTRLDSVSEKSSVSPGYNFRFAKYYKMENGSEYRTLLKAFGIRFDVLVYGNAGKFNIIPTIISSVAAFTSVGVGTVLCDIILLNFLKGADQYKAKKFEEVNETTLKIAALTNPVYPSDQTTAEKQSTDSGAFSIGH
Assay: Intracellular Calcium Measurement to Assess Antagonist Affinity (FLIPR, Fluo-4, agonist α,β-meATP)
Details: Intracellular Calcium Measurement to Assess Antagonist Affinity assay; [α,β-meATP]final=EC50
IC50: recorded values
Give your result in nM as a bare value.

// solved cases for IC50 follow
>>> result_value("C[C@@H](NC(=O)c1cc(C2=NO[C@H](c3ccccn3)C2)cc(-c2ccc(Cl)cn2)c1)c1ccc(F)cn1")
110
>>> result_value("Cc1ccc(-c2cc(C(=O)N[C@H](C)c3ccc(C(F)(F)F)nc3)cc(C3=NO[C@H](c4ccccn4)C3)c2)nc1")
10

Problem: Any idea what its IC50 is? The compound is Cc1ccc(-c2cc(C(=O)N[C@H](C)c3ccc(F)cn3)cc(C3=NO[C@H](c4ccccn4)C3)c2)nc1
Result: 20

Problem: Moving on to the next compound: Cc1ccc(-c2cc(C(=O)N[C@H](C)c3ncc(F)cc3F)cc(C3=NOC4(CCC4)C3)c2)nc1
Result: 58

Origin of measurements: patent US8461185B2
